Data credit: ChEMBL document CHEMBL1122595

# Test system: Rattus norvegicus
# Assay Details: Antiinflammatory activity in rats by using reverse passive Arthus reaction (RPAR) assay at dose level of 50 mg/Kg by peroral administration
# Type: functional
Assign class by Inhibitory response: not lower than 30% means 1; lower than 30% means 0.

Determine whether measured Inhibitory response meets or exceeds 30% for CSc1ccc2c(c1)C(O)C(N)CCC2 (stereo in doubt; 4l) 0

Determine whether measured Inhibitory response meets or exceeds 30% for `N[C@@H]1CCCc2cccnc2[C@@H]1O` 0

Determine whether measured Inhibitory response meets or exceeds 30% for Cl.NC1CCCc2ccccc2C1O (stereo in doubt; 4a) 1

Determine whether measured Inhibitory response meets or exceeds 30% for CC(=O)Nc1ccc2c(c1)C(O)C(N)CCC2 (configuration not stated) 0

Further cases:
Determine whether measured Inhibitory response meets or exceeds 30% for Cl.NC1CCCc2cc(F)ccc2C1O (configuration not stated) 1

Determine whether measured Inhibitory response meets or exceeds 30% for `Cl.N[C@@H]1CCCc2cccnc2[C@@H]1O` 1

Determine whether measured Inhibitory response meets or exceeds 30% for CSc1ccc2c(c1)CCCC(N)C2O (configuration not stated) 1

Determine whether measured Inhibitory response meets or exceeds 30% for O=C1NC2CCCc3ccccc3C2O1 (stereo in doubt; 20a) 1

Determine whether measured Inhibitory response meets or exceeds 30% for COc1cc2c(cc1SC)C(O)C(N)CCC2 (stereo in doubt; 4ff) 1
